Values were extracted from patent US20090311217A1.

- SYSTEM_UNDER_TEST: PI3K-alpha (Homo sapiens)
- Sequence (P42336 whole entry, species assumed): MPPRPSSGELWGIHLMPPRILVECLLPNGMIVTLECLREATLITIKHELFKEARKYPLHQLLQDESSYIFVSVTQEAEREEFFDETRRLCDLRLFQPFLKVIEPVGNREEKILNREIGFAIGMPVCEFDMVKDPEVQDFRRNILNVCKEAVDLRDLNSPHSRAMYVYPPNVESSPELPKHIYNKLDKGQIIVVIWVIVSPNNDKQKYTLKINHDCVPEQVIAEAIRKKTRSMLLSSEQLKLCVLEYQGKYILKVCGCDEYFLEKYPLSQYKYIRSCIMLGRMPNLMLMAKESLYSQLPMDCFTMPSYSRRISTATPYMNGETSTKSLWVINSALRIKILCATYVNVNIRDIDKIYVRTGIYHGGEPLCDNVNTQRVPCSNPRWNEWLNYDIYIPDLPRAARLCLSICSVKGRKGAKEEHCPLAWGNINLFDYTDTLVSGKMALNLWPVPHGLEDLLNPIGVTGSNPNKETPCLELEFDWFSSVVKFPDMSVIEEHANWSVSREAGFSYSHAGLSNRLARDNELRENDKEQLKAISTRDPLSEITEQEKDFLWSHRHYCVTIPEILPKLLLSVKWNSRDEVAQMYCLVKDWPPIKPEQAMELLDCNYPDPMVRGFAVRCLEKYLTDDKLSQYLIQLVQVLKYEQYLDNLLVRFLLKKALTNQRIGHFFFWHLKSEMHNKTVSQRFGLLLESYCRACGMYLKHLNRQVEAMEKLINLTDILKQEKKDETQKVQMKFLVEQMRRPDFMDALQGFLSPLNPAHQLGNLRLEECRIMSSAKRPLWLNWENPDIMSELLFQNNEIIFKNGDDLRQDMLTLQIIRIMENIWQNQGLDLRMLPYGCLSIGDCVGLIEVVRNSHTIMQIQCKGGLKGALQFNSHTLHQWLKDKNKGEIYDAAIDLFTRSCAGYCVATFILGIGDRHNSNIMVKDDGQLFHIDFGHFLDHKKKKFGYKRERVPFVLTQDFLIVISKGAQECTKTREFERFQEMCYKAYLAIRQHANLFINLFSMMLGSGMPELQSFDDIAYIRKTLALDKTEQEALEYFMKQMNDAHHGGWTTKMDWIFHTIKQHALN
- Sequence (P27986 whole entry partner, species assumed): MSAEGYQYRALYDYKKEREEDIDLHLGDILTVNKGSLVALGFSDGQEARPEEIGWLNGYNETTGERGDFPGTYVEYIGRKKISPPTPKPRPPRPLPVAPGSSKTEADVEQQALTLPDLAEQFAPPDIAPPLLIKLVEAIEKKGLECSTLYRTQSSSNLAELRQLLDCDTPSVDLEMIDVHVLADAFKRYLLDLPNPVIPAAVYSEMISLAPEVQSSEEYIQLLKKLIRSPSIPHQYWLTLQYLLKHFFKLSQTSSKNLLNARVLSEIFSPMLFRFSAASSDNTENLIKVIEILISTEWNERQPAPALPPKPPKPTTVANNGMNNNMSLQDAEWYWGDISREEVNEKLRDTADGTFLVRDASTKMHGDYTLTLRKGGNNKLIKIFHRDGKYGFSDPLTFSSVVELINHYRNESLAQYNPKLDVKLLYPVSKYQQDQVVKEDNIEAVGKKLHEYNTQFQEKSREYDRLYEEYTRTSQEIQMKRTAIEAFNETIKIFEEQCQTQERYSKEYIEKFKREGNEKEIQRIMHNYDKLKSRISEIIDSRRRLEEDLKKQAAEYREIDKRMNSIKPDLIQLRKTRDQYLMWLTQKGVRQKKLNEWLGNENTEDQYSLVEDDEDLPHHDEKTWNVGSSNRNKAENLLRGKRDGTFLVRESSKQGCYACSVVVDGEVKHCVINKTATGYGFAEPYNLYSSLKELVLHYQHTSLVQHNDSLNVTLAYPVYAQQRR
- ASSAY_REMARKS: PI3K-alpha fluorescence polarization assay
- Type: biochemical
- ASSAY_SETUP: read-out: PI3Kα Avg. IC50
MEASURED_PARAMETER: log10(IC50) (log10 of the value in nM)

- COMPOUND: "Cn1cc(/C=C2\\Oc3cc(O)cc(O)c3C2=O)c2c(-c3ccc(NC(=O)N4CCOCC4)cc3)cccc21"
  log10(IC50): 2.97
- COMPOUND: "Cn1cc(/C=C2\\Oc3c(ccc(O)c3O)C2=O)c2ccccc21"
  log10(IC50): 3.65
- COMPOUND: "COc1ccc(-c2[nH]c3ccccc3c2C=C2Oc3cc(O)cc(O)c3C2=O)cc1"
  log10(IC50): 2.98
- COMPOUND: "CNC(=O)Nc1ccc2c(c1)C(=O)/C(=C/c1c(-c3cccnc3)n(CCN3CCN(C)CC3)c3ccc(OC)cc13)O2"
  log10(IC50): 0.23
- COMPOUND: "Cn1c(-c2ccc(F)c(Cl)c2)c(C=C2Oc3cc(O)cc(O)c3C2=O)c2ccccc21"
  log10(IC50): 3.19
- COMPOUND: "CCCn1c(-c2ccccc2)c(C=C2Oc3cc(O)cc(O)c3C2=O)c2ccccc21"
  log10(IC50): 3.69
- COMPOUND: "COc1ccc2[nH]cc(/C=C3\\Oc4cc(O)c(O)cc4C3=O)c2c1"
  log10(IC50): 2.34
- COMPOUND: "COc1ccc2[nH]c(-c3c(C)nn(C)c3C)c(/C=C3\\Oc4ccc(NC(=O)Nc5ccc(C(=O)N6CCC(N(C)C)C6)cc5)cc4C3=O)c2c1 (stereo not drawn)"
  log10(IC50): -0.60
- COMPOUND: "Cn1cc(/C=C2\\Oc3cc(O)cc(O)c3C2=O)c2c(-c3cccc(C#N)c3)cccc21"
  log10(IC50): 3.16
- COMPOUND: "COc1ccc2c(c1)c(/C=C1\\Oc3ccc(NC(=O)Nc4ccc(N(C)C)cc4)cc3C1=O)c(C)n2CCN1CCN(C)CC1"
  log10(IC50): 0.59
- COMPOUND: "COc1ccc2c(c1)c(/C=C1\\Oc3ccc(O)cc3C1=O)cn2CCCC#N"
  log10(IC50): 3.14
- COMPOUND: "Cn1cc(C=C2Oc3cc(O)cc(O)c3C2=O)c2c(C#N)cccc21"
  log10(IC50): 3.26
- COMPOUND: "Cn1c(-c2ccc(O)cc2)c(C=C2Oc3cc(O)cc(O)c3C2=O)c2ccccc21"
  log10(IC50): 3.05
- COMPOUND: "COc1ccc2c(c1)c(/C=C1\\Oc3ccc(NC(=O)Nc4ccc(C(=O)N5CCN(C)CC5)cc4)cc3C1=O)c(C)n2CCN1CCN(C)CC1"
  log10(IC50): -0.30
- COMPOUND: "COc1ccc2c(c1)c(/C=C1\\Oc3cc(O)ccc3C1=O)c(-c1c(C)noc1C)n2CCN1CCN(C)CC1"
  log10(IC50): 1.37
- COMPOUND: "O=C1/C(=C/c2c[nH]c3ccccc23)Sc2ccccc21"
  log10(IC50): 3.98
- COMPOUND: "CCCCNC(=O)Nc1ccc2c(c1)C(=O)/C(=C/c1c[nH]c3ccc(OC)cc13)O2"
  log10(IC50): 4.01
